# Lookup of reported Bliss excess keyed by entry
- Tested on: NCI-H1781 (Lung Adenocarcinoma);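 also: after 72 h of two-drug dosing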
- experimentalProtocol: Bliss excess, mean over the matrix (fraction); higher = more synergy
In your answer, state the number alone without any accompanying words.

Worked cases, answers included:
compound | testTarget | assayReadout | testValue
NC1(C(=O)N[C@@H](CCO)c2ccc(Cl)cc2)CCN(c2ncnc3[nH]ccc23)CC1 [Capivasertib] + Cn1cnc2c(F)c(Nc3ccc(Br)cc3Cl)c(C(=O)NOCCO)cc21 [Selumetinib] (first compound max 10 µM, 7x7, partner max 10 µM) | NCI-H1781 (Lung Adenocarcinoma) | Bliss excess | 0.105
CC1(C)CCC(CN2CCN(c3ccc(C(=O)NS(=O)(=O)c4ccc(NCC5CCOCC5)c([N+](=O)[O-])c4)c(Oc4cnc5[nH]ccc5c4)c3)CC2)=C(c2ccc(Cl)cc2)C1 [Venetoclax] + CN(C)CCCOc1ccc(-c2ccc3ncc4c(c3c2)n(C2CCOCC2)c(=O)n4C)cn1 [AZD0156] (first compound max 1 µM, 7x7, partner max 1 µM) | NCI-H1781 (Lung Adenocarcinoma) | Bliss excess | 0.0048

Turning now to a further compound:
Value lookup for Bliss excess; key = Cc1cc2ncnn2cc1Nc1ncc2c(n1)n(C1CCOCC1)c(=O)n2C [AZD7648] + C=CCn1c(=O)c2cnc(Nc3ccc(N4CCN(C)CC4)cc3)nc2n1-c1cccc(C(C)(C)O)n1 [AZD1775] (first compound max 10 µM, partner max 1 µM)
-0.0222

Hey, just so you know, these numbers are from the supplement of paper PMC11061612.
